Tested on: ischemic heart isolated from white rat
Assay: Cardioprotective effect on isolated ischemic rat heart (Langendorff, 30 min global ischemia / 30 min reperfusion)
Conditions: 10 μM; during 30 min global ischemia; first 5 mmHg increase in EDP
Parameter Measured: TTC (time to induce contraction / time to contracture) (min)
Value expressed in min; do not type the unit.

Below, each entry is followed by its recorded TTC (time to induce contraction / time to contracture) result.
q: Could you share what TTC (time to induce contraction / time to contracture) was measured for COC(OC)[C@]1(C)Oc2ccc([N+](=O)[O-])cc2[C@@H](n2c(=S)oc3ccccc32)[C@@H]1O , tested on ischemic heart isolated from white rat?
a: 24.4

q: Could you share what TTC (time to induce contraction / time to contracture) was measured for COC(OC)[C@]1(C)Oc2ccc([N+](=O)[O-])cc2[C@H](n2c(=S)oc3cc(C)ccc32)[C@H]1O , tested on ischemic heart isolated from white rat?
a: 29.0

q: Could you share what TTC (time to induce contraction / time to contracture) was measured for COc1ccc2oc(=S)n([C@H]3c4cc([N+](=O)[O-])ccc4O[C@@](C)(C(OC)OC)[C@@H]3O)c2c1 , tested on ischemic heart isolated from white rat?
a: 24.4

Kindly review the next molecule as well.
q: Could you share what TTC (time to induce contraction / time to contracture) was measured for COC(OC)[C@]1(C)Oc2ccc([N+](=O)[O-])cc2[C@H](n2c(=S)oc3ccc(C(F)(F)F)cc32)[C@H]1O , tested on ischemic heart isolated from white rat?
a: 26.5
